Would you kindly list IC50 for each of these molecules?
Target: human DGAT1 (Homo sapiens (Human), UniProt O75907)
Sequence (O75907 whole entry): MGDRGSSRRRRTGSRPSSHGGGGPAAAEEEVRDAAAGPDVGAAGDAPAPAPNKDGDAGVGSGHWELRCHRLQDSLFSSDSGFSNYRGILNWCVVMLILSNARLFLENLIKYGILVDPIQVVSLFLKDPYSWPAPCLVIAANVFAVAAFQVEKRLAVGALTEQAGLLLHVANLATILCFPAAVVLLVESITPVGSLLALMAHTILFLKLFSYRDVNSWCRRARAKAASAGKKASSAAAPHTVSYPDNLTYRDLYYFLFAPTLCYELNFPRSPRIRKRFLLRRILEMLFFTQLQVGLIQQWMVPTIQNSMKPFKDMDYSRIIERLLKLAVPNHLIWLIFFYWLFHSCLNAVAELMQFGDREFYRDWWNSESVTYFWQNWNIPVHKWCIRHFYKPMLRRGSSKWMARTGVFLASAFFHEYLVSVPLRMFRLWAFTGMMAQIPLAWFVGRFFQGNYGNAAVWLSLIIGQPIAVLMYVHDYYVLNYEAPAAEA
Assay: Human DGAT1 enzyme inhibition test (phospholipid FlashPlate, [14C]decanoyl-CoA)
Format: biochemical
Conditions: lysate of Hep3B cells over-expressing human DGAT1 (5 μg/well); didecanoyl glycerol and [14C]decanoyl-CoA substrates

Batch of 3 molecules: report IC50 for each.
1. O=C(O)C[C@H]1CC[C@H](c2ccc(NC(=O)CCNC(=O)c3oc(-c4ccccc4)nc3C(F)(F)F)cc2)CC1
2. Cc1cccc(C)c1-c1ccc(C(=O)NCCC(=O)Nc2ccc([C@H]3CC[C@H](CC(=O)O)CC3)cc2)cc1
3. O=C(O)C[C@H]1CC[C@H](c2ccc(NC(=O)CCNC(=O)c3sc(-c4ccccc4)nc3C(F)(F)F)cc2)CC1

["< 100 nM", "< 100 nM", "< 100 nM"]

Batch of 4 molecules: report IC50 for each.
1. Cc1oc(-c2ccccc2)nc1C(=O)NCCC(=O)Nc1ccc([C@H]2CC[C@H](CC(=O)O)CC2)cc1
2. O=C(O)C[C@H]1CC[C@H](c2ccc(NC(=O)CCNC(=O)c3nc(-c4ccccc4Cl)oc3Cl)cc2)CC1
3. O=C(O)C[C@H]1CC[C@H](c2ccc(NC(=O)CCNC(=O)c3ccc(OCC4CC4)cc3)cc2)CC1
4. O=C(O)C[C@H]1CC[C@H](c2ccc(NC(=O)CCNC(=O)c3nc(-c4ccccc4)oc3Cl)cc2)CC1

1: < 100 nM; 2: < 50 nM; 3: < 500 nM; 4: < 100 nM

----------
Would you kindly list pIC50 for each of these compounds?
Biological target: human DGAT1 (Homo sapiens (Human), UniProt O75907)
Experiment: Human DGAT1 enzyme inhibition test (phospholipid FlashPlate, [14C]decanoyl-CoA)
Format: biochemical
Conditions: lysate of Hep3B cells over-expressing human DGAT1 (5 μg/well); didecanoyl glycerol and [14C]decanoyl-CoA substrates
pIC50: −log10 of the molar value.

Batch of 3 compounds: report pIC50 for each.
1. O=C(O)C[C@H]1CC[C@H](c2ccc(NC(=O)CCNC(=O)c3nc(-c4ccc(F)cc4)oc3C(F)(F)F)cc2)CC1
2. O=C(O)C[C@H]1CC[C@H](c2ccc(NC(=O)CCNC(=O)c3cn(-c4ccc(Cl)cc4)nc3C(F)(F)F)cc2)CC1
3. O=C(O)C[C@H]1CC[C@H](c2ccc(NC(=O)CCNC(=O)c3nc(-c4c(F)cccc4Cl)oc3C(F)(F)F)cc2)CC1

1. > 6.30
2. > 7.00
3. > 7.00

Batch of 5 compounds: report pIC50 for each.
1. O=C(O)C[C@H]1CC[C@H](c2ccc(NC(=O)CCNC(=O)c3nc(-c4ccccc4Br)oc3C(F)(F)F)cc2)CC1
2. CCc1ccc(-c2ccc(C(=O)NCCC(=O)Nc3ccc([C@H]4CC[C@H](CC(=O)O)CC4)cc3)cc2)cc1
3. Cc1nc(-c2ccccc2)sc1C(=O)NCCC(=O)Nc1ccc([C@H]2CC[C@H](CC(=O)O)CC2)cc1
4. O=C(O)C[C@H]1CC[C@H](c2ccc(NC(=O)CCNC(=O)c3nc(-c4c(Cl)cccc4Cl)oc3C(F)(F)F)cc2)CC1 [Compound 69]
5. NC(=O)C[C@H]1CC[C@H](c2ccc(NC(=O)CCNC(=O)c3nc(-c4ccccc4)oc3C(F)(F)F)cc2)CC1

1: > 7.30; 2: > 7.30; 3: > 6.30; 4: > 7.30; 5: > 7.30

Batch of 4 compounds: report pIC50 for each.
1. O=C(O)C[C@H]1CC[C@H](c2ccc(NC(=O)CCNC(=O)c3nc(-c4ccccc4F)oc3C(F)(F)F)cc2)CC1
2. O=C(O)C[C@H]1CC[C@H](c2ccc(NC(=O)CCNC(=O)c3nc(-c4ccccc4Cl)oc3C(F)(F)F)cc2)CC1 [Compound 11]
3. O=C(O)C[C@H]1CC[C@H](c2ccc(NC(=O)CCNC(=O)c3nc(-c4ccccc4Cl)oc3C(F)(F)F)cc2)CC1 [Compound 79]
4. Cc1ccccc1-c1nc(C(=O)NCCC(=O)Nc2ccc([C@H]3CC[C@H](CC(=O)O)CC3)cc2)c(C(F)(F)F)o1

1: > 7.30; 2: > 7.30; 3: > 7.30; 4: > 7.00
